Assay: Pharmacokinetic measurement in mouse, single sc dose 30 nmol/kg, plasma ELISA
Conditions: single sc dose 30 nmol/kg
READOUT_KIND: Terminal t1/2 (h)

MOLECULE	READOUT_KIND	RESULT_VALUE
MLC013: fusion polypeptide SEQ ID NO: 260 conjugated with Moiety A at 1K of Linker (conjugate, Moiety A conjugated at linker K1) HGEGTFTSDVSSYLEEQAAREFIAWLVRGGGKQEPGAQPGQEPGAQPGQEPGAQPGQEPGAQPGQEPGAQPGQEPGAQPGAQPGAQPGAQPGAQPGAQPGAQPGAQPGAQPARQGDHCPLGPGRCCRLHTVRASLEDLGWADWVLSPREVQVTMCIGACPSQFRAANLHAQIKTSLHRLRPDTVPAPCCVPASYNPMVLIQRTDTGVSLQTYDDLLARDCHCI	Terminal t1/2	8.9
MLC006: fusion polypeptide SEQ ID NO: 253 conjugated with Moiety A at 36K of GLP-1 (conjugate, Moiety A conjugated at K36) HGEGTFTSDVSSYLEEQAAREFIAWLVRGKGGQEPGQEPGQEPGQEPGQEPGQEPGQEPGQEPGAQPGAQPARQGDHCPLGPGRCCRLHTVRASLEDLGWADWVLSPREVQVTMCIGACPSQFRAANLHAQIKTSLHRLRPDTVPAPCCVPASYNPMVLIQRTDTGVSLQTYDDLLARDCHCI	Terminal t1/2	4.4
